biological target: T1, human eotaxin (human, UniProt P51671 24-97); assay: ELISA, coated antigen
T1 construct: also called hEotaxin
T1 sequence (P51671 24-97 limits assumed): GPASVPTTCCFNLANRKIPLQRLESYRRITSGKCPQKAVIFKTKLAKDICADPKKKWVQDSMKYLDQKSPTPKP
PROPERTY: ELISA OD
Phrase the answer as number then unit, nothing more needed.

ELISA OD in this record for anti-MCP-1 mAb 1.1.1 (antibody, human IgG2, kappa, V domains shown) VH: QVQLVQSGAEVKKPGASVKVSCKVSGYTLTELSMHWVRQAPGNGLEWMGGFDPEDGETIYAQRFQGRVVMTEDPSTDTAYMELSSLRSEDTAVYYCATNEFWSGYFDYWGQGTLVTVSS VL: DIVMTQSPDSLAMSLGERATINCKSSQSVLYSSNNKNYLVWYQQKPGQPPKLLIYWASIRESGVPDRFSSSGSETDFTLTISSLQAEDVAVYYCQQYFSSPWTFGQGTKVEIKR : 0.042 OD450

ELISA OD in this record for anti-MCP-1 mAb 1.8.1 (antibody, V domains shown) VH: QVQLVQSGAEVKKPGASVKVSCKVSGHIFTELSIHWVRQAPGKGLEWMGGFDPEDGETIYAQKFQGRVTMTEDTSTDTVYMELSSLRSEDTAVYYCATNDFWSGYFDYWGQGTLVTVSS VL: DIVMTQSPGSLAVSLGERATINCKSSQSILFRSNNKNYLTWYQQKPGQPPKLLIYWASIRESGVPDRFSGSGSGSNFTLTITSLQAEDVAIYYCQQYYSSPWTFGQGTKVEIKR : 0.047 OD450

ELISA OD in this record for anti-MCP-1 mAb 3.11.1 (antibody, human IgG4, kappa, V domains shown) VH: QVQLQESGPGLVKPSQTLSLTCTVSGGSISSGGNYWNWIRQHPGKGLEWIGYIYYSGNTYYNPSLKSRITISIDTSKNQFSLTLSSVTAADTAVYYCARDGGDDAFDIWGQGTMVTVSS VL: DIQMTQSPSSLSASVGDRVTITCQASQDISNYLNWYQQKPGKAPKLLIYDASNLETGVPSRFSGSGSGTDFTFTINSLQPEDIATYYCQEYNNLPYSFGQGTKLEIKR : 0.339 OD450

ELISA OD in this record for anti-MCP-1 mAb 5.1 (antibody, V domains shown) VH: EQSGGGVVQPGRSLRLSCAASGFTFSSYGMHWVRQAPGKGLEWVAVIWYDGNNKYYADSVKGRFTISRDTSKNTLYLQMNSLRAEDTAVYYCARDSSSYYYYGMDVWGQGTTVTVSS VL: NFMLTQPHSVSESPGKTVTISCTRSSGSIASNYVQWFQQRPGSSPTTVIYEDDQRPSGVPDRFCGSIDSSSNSASLTISGLRTEDEADYYCQSYDSSNHVVFGGGTKLTVLG : 0.042 OD450

ELISA OD in this record for anti-MCP-1 mAb 1.13.1 (antibody, V domains shown) VH: QVQLVQSGAEVKKPGASVKVSCKVSGHTLTELSMHWVRQAPGKGLEWMGGFDPEDDETIYAQKFQDRVTMTEDTSTDTAYMELSSLRSEDTAVYYCATNDFWSGYFDCWGQGTLVTVSS VL: DIVLTQSPDSLAVCLGERATINCKSSQSVLYSPNNKNFLVWYQQRPGQPPKLLIYWASTRESGVPDRFSGSGSGTDFTLTISSLQAEDVAVYYCQQYYSSPWTFGQGTKVEIKR : 0.044 OD450

ELISA OD in this record for anti-MCP-1 mAb 3.16.1 (antibody, V domains shown) VH: QVQLVQSGAEVKKPGASVKVSCKVSGYTLTDLSMHWVRQAPGKGLEWMGGFDPEDGETIYAQKFQGRVTMTEDTSSDTAYMELSSLRSEDTAVYYCATHEFWSGYFDYWGQGTLVTVSS VL: DIVMTQSPDSLAVSLGERATINCKSSQSVLFSSNNKSYLTWYQQKPGQPPKLLIFWASIRESGVPDRISGSGSGTDLTLTISSLQAEDAAVYYCQQYYSSPWTFGQGTKVEIKR : 0.043 OD450

ELISA OD in this record for anti-MCP-1 mAb 1.4.1 (antibody, V domains shown) VH: QSGPGLVKPSQTLSLTCAISGDSVSSNSAAWNWIRQSPSRGLEWLGRTYYRSKWYSDHAVSVRSRITIYPDTSKNQFSLQLNSVTPEDTAVYYCARDRISGTYVGMDVWGQGTTVTVSS VL: DIGMTQTPLSLSVTPGQPASISCKSSQSLLYSDGKTYLYWYLQKPGQPPQHLIYEVSNRFSGVPDRFSGSGSGTDFTLKISRVEADDVGVYYCMQTIHLPLTFGGGTKVEIQR : 0.043 OD450

ELISA OD in this record for anti-MCP-1 mAb 1.2.1 (antibody, V domains shown) VH: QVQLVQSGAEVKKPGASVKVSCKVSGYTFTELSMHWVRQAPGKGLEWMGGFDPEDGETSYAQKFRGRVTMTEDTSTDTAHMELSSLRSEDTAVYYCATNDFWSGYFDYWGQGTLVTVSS VL: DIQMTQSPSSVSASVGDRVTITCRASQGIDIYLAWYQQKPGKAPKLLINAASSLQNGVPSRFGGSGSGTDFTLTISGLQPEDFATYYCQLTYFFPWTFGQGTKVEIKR : 0.044 OD450
